melting point values for the molecules below.

Sample answers from the record:
line.notation	obs.value
Cc1ccc2c(C#N)c(-c3ncc(S(=O)(=O)N[C@H](C)C(F)(F)F)cn3)n(C3CCC3)c2n1	205 to 209 °C
CCOc1cnc2c(c1)c(C#N)c(-c1ccc(S(=O)(=O)N[C@@H](C)C(F)(F)F)cn1)n2C1CCC1	181 to 182 °C
Cc1cnc2c(C#N)c(-c3ccc(S(=O)(=O)N[C@@H](C)C(F)(F)F)cn3)n(C3CCCC3)c2c1	210 to 212 °C
CSc1cnc2c(c1)c(C(N)=O)c(-c1ccc(NS(=O)(=O)C(C)C)cc1)n2C1CCCC1	250 to 252 °C
C[C@@H](NS(=O)(=O)c1ccc(-c2c(C#N)c3cc(C4CC4)cnc3n2C2CCCC2)nc1)C(F)(F)F	155 to 164 °C
C[C@@H](NS(=O)(=O)c1ccc(-c2c(C#N)c3cc(F)cnc3n2CC2CC2)nc1)C(F)(F)F	185 to 187 °C

Could you tell me which melting point is on file for "COc1cnc2c(c1)c(C#N)c(-c1ccc(S(=O)(=O)N[C@@H](C)C(F)(F)F)cn1)n2CC1CC1" ?
136 to 140 °C

====

melting point values for the molecules below.

Sample answers from the record:
molecule	melting point
Cc1cnc2c(c1)c(C#N)c(-c1ccc(S(=O)(=O)N[C@@H](C)C(F)(F)F)cn1)n2-c1ncc(Br)cn1 [Cpd 435]	169 to 171 °C
CC1(NS(=O)(=O)c2ccc(-c3c(C(N)=O)c4cc(C(F)(F)F)cnc4n3C3CCCCC3)cc2)CC1 [Cpd 442]	284 to 286 °C
C[C@H](NS(=O)(=O)c1ccc(-c2c(C#N)c3cc(Cl)cnc3n2C2CCCC2)nc1)C(F)(F)F [Cpd 24]	197 to 199 °C

The record that follows has no melting point shown yet.
Could you tell me which melting point is on file for COc1cnc2c(c1)c(C#N)c(-c1ccc(S(=O)(=O)N[C@H](C)C(F)(F)F)cn1)n2C1CCCC1 [Cpd 268] ?
181 to 184 °C

====

melting point values for the compounds below.

Sample answers from the record:
line.notation	melting point
Cc1cnc2c(c1)c(C#N)c(-c1ccc(S(=O)(=O)NC3(C)CC3)cc1)n2C1CCC1	188 to 190 °C
CC(C)(C)NS(=O)(=O)c1ccc(-c2c(C#N)c3cc(F)cnc3n2-c2ccc(F)cc2)nc1	259.1 to 260.7 °C
C[C@H](NS(=O)(=O)c1ccc(-c2c(C#N)c3cc(C(F)(F)F)cnc3n2C2CCCCC2)nc1)C(F)(F)F	204 to 206 °C

The record that follows has no melting point shown yet.
Could you tell me which melting point is on file for "CC(C)(NS(=O)(=O)c1ccc(-c2c(C#N)c3cc(C(F)(F)F)cnc3n2C2CCCCC2)cc1)C(F)(F)F" ?
203 to 205 °C

====

assay.endpoint: melting point

Sample answers from the record:
line.notation	obs.value
C[C@H](NS(=O)(=O)c1cnc(-c2c(C#N)c3cc(C#N)cnc3n2C2CCC2)nc1)C(F)(F)F	216 to 219 °C
Cc1cnc2c(c1)c(C#N)c(-c1ccc(S(=O)(=O)N[C@@H](C)C(F)(F)F)cn1)n2CC(C)C	125 to 130 °C
C[C@H](NS(=O)(=O)c1ccc(-c2c(C#N)c3cc(C(F)(F)F)cnc3n2C2CCCC2)nc1)C(F)(F)F	205 to 207 °C

Could you tell me which melting point is on file for "C[C@H](NS(=O)(=O)c1cnc(-c2c(C(N)=O)c3cc(C(F)F)cnc3n2C2CCC2)nc1)C(F)(F)F" ?
199 to 201 °C

Could you tell me which melting point is on file for "CSc1cnc2c(c1)c(C(N)=O)c(-c1ccc(S(=O)(=O)NC(C)(C)C)cc1)n2C1CCC1" ?
224 to 226 °C

Could you tell me which melting point is on file for "Cc1ccc2c(C#N)c(-c3ncc(S(=O)(=O)N[C@@H](C)C(F)(F)F)cn3)n(C3CCC3)c2n1" ?
207 to 212 °C

Could you tell me which melting point is on file for "Cc1cnc2c(c1)c(C#N)c(-c1ccc(S(=O)(=O)N[C@@H](C)C(F)(F)F)cc1)n2C(C)C" ?
197 to 202 °C
